molecule: O=C1C=C2CCCCC2N1c1ccc(OCCN2CCCCC2)c(Cl)c1 (stereo not given)
melting point, °C: 98

molecule: CCCOc1nc(O)ns1
melting point, °C: 92

====

Catalogue of melting point readings, one per entry.

molecule: CC(C)c1nc(COCc2ccccc2)n(CC(C)(C)O)c1Sc1cc(Cl)cc(Cl)c1
melting point: 181 to 182 °C
//
molecule: CC(CCC(=O)O)(Sc1cc(C(C)(C)C)c(O)c(C(C)(C)C)c1)Sc1cc(C(C)(C)C)c(O)c(C(C)(C)C)c1
melting point: 90 to 92 °C
//
molecule: CC(C)(C)OC(=O)N1CCC(=Cc2ccc3ccccc3n2)CC1
melting point: 72 to 73 °C
//
molecule: COc1cc(N)c(Cl)cc1C(=O)NCC1CCN(CCCCCC(=O)c2ccc(C)cc2C)CC1
melting point: 106 to 110 °C
//
molecule: COc1ccc(S(=O)(=O)Nc2ccccc2NC(=O)c2cccs2)cc1
melting point: 136 to 137 °C
//
molecule: COC(=O)c1ccc(-c2ccc(-c3ccccc3)c(-c3ccc4c(c3)C(C)(C)CCC4(C)C)c2)cc1C
melting point: 130 to 132 °C
//
molecule: O=[N+]([O-])c1cc(C(F)(F)F)c(Br)cc1-n1ccnc1
melting point: 149 to 157 °C
//
molecule: Cc1cc(Cl)c(N)c(Cl)c1
melting point: 50 to 52 °C
//
molecule: CN1CC(CO)Cc2ccc(NC(=O)/C=C/c3ccc(C(F)(F)F)cc3)cc21 (centres undefined)
melting point: 167 to 169 °C

====

Residues, ends and D or L forms follow the SMILES beside them. *: point of attachment. Tos = Cc1ccc(S(=O)(=O)*)cc1
Documented melting point across a set of molecules

molecule: Nc1ccc(Oc2cccc(Oc3ccc(N)c(O)c3)c2)cc1O
melting point: 171 to 174 °C
--
molecule: CC(C)(C)OC(=O)N1CCC(Oc2ccc3c(c2)NC(=O)CC3)CC1
melting point: 158 to 160 °C
--
molecule: Fc1ccc(-c2nc3ccc(OC(F)(F)F)cc3[nH]2)cc1
melting point: 158 to 160 °C
--
molecule: O=C(c1ccc(F)c(F)c1)N1CCC[C@H](c2nc(-c3cscn3)no2)C1
melting point: 107 to 109 °C
--
molecule: CN1CCN(c2cnc3cc(Cl)ccc3n2)CC1
melting point: 151 to 152 °C
--
molecule: COc1cc(C=C2C(=O)CCc3c2ccc2c3OCO2)c([N+](=O)[O-])cc1OC
melting point: 66 to 68 °C
--
molecule: CC(=O)C1CCC2C3CC=C4CCCCC4(C)C3CCC12C (stereo not given)
melting point: 207 to 209 °C
--
molecule: CC(C)Oc1c(C(=O)O)sc2c1CSCC2
melting point: 148 to 149 °C
--
molecule: CC(=O)NC(C)Cc1ccc(C=CC(=O)O)cc1 (stereo not given)
melting point: 207 to 208 °C
--
molecule: Cc1ccc(S(=O)(=O)N2CCC[C@H]2C(=O)N[C@@H](CC(=O)O)C(=O)O)cc1 (Tos-Pro-Asp-OH)
melting point: 153 to 155 °C
--
molecule: CCC1Cc2c(O)cc(OC)cc2C(=O)O1 (stereo not given)
melting point: 167 to 168 °C
--
molecule: O=C(O)c1ccccc1Sc1cc(Cl)ccc1C(=O)O
melting point: 241 to 242 °C
--
molecule: CC(=O)c1ccc(-n2c(-c3sc(NC(=O)c4ccc(C)cc4)nc3-c3ccccc3)nc3ccccc3c2=O)cc1
melting point: 266 to 267 °C
--
molecule: Cc1ccc(NC(=O)c2cccc(N(C)C)c2)cc1Nc1ncc(-c2cccnc2)o1
melting point: 228 °C
--
molecule: O=C(O)c1ccccc1C(=O)c1ccc(Cl)c(S(=O)(=O)Cl)c1
melting point: 176 to 177 °C
--
molecule: COc1cccc(CC(=O)O)c1OCCc1ccccc1
melting point: 88 to 89 °C
--
molecule: O=C1NCc2ccccc2N1C1CCN(Cc2ccccc2)CC1
melting point: 120 °C
--
molecule: OC(c1ccc(OCc2ccccc2)cc1)c1ccc(OCc2ccccc2)cc1
melting point: 113 to 120 °C
--
molecule: CCCCCCOc1cc(C(=O)O)cc([N+](=O)[O-])c1C(=O)c1ccccc1
melting point: 165 to 166 °C
--
molecule: COCC(=O)Nc1nc2ccccc2s1
melting point: 99 to 100 °C
--
molecule: O=C(Nc1ccc(CCc2nnn[nH]2)cc1)C(F)(F)C(F)(F)C(F)(F)F
melting point: 161 to 162 °C
--
molecule: CCOC(=O)N(CC)c1cccc(-c2ccc3nnc(C)n3n2)c1
melting point: 132 to 135 °C
--
molecule: Cc1ccc(Cl)c(Nc2ccccc2-c2noc(=O)[nH]2)c1Cl
melting point: 209 to 210 °C
--
molecule: CNC(C)CCC1(C(N)=O)c2ccccc2-c2ccccc21 (stereo not given)
melting point: 178 to 180 °C
--
molecule: C=CCNc1cc(C(=O)O)cc(S(N)(=O)=O)c1Oc1ccccc1
melting point: 223 to 225 °C
--
molecule: CCCCNC(=O)N(C)c1cccc(-c2ccc(C=C(OC)C(=O)O)cc2OCCCC)c1
melting point: 106 °C
--
molecule: O=C1CCCN1c1cccc(-n2cnc3cc(-c4ccoc4)cnc32)c1
melting point: 208 to 210 °C
--
molecule: N#CCCNC(=O)c1cccc(-c2cccc3nn(Cc4ccc(F)cc4)cc23)c1
melting point: 133 to 134 °C
--
molecule: Cn1nnnc1SCC1=C(C(=O)OCOC(=O)C(C)(C)C)N2C(=O)C(NC(=O)Cc3csc(=O)s3)C2SC1 (stereo not given)
melting point: 100 °C
--
molecule: COC(=O)c1nc(-c2ccccc2)ccc1Oc1nc(OC)cc(OC)n1
melting point: 92 to 94 °C
--
molecule: O=C1c2cccc(SCCCCCCO)c2C(=O)c2cccc(SCCCCCCO)c21
melting point: 195 to 196 °C
--
molecule: O=C1C=CC2(C=C1)N=C(N1CCN(Cc3ccc(F)cc3)CC1)C=C2c1ccccc1
melting point: 188 °C
--
molecule: Cc1cc(CN(Cc2ccco2)c2sc(-c3ccc(C(F)(F)F)cc3)nc2C)ccc1OC(C)(C)C(=O)O
melting point: 80 °C
--
molecule: Cc1ccc2nc(-c3ccccc3)cc(Cl)c2c1
melting point: 90 to 93 °C
--
molecule: Nc1nc(Cl)cc(OC(F)F)n1
melting point: 118 to 119 °C
--
molecule: COC(=O)c1ccc(S(=O)(=O)N2CC[C@H](O)C2)n1C
melting point: 108 to 109 °C
--
molecule: CC(C)CCCC(C)C1CCC2C3CCC4CC(NC(=O)C(COCc5ccccc5)NC(=O)OC(C)(C)C)CCC4(C)C3CCC12C (stereo not given)
melting point: 55 to 67 °C
--
molecule: O=C(O)Cc1cccc2c(=O)cc(-c3cccc(F)c3)oc12
melting point: 208 to 211 °C
--
molecule: Cc1cc(C(=O)C2CCc3nc[nH]c3C2)c2ccccn12 (stereo not given)
melting point: 219 to 221 °C
--
molecule: CCOC(=O)COc1cccc(-c2cc(O)c(SCCc3ccccc3)c(=O)o2)c1
melting point: 116 to 119 °C
